# Assay target: NELF-A full-length;NELF-B;NELF-D (called NELF-C);NELF-E (1-138) (Homo sapiens;Homo sapiens;Homo …, UniProt Q9H3P2;Q8WX92;Q8IXH7-4;P18615 1-528;49-628;1-581;1-138, |||)
# Sequence (Q9H3P2 whole entry, chain 1 of 4): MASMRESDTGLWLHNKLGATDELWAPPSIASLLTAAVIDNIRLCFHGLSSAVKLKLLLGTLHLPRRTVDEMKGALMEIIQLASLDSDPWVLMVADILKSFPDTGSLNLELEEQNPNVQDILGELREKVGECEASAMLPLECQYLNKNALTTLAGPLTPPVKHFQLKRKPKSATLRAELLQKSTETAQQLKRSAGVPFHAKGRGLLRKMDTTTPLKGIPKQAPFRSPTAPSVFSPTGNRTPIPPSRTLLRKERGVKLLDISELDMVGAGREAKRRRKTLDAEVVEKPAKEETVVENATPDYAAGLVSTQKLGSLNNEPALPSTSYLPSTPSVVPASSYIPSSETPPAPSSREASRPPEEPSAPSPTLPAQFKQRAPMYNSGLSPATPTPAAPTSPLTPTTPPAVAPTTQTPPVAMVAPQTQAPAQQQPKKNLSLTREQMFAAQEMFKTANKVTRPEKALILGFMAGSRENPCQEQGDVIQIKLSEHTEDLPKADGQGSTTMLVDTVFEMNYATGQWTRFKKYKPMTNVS
# Sequence (Q8WX92 whole entry, chain 2 of 4): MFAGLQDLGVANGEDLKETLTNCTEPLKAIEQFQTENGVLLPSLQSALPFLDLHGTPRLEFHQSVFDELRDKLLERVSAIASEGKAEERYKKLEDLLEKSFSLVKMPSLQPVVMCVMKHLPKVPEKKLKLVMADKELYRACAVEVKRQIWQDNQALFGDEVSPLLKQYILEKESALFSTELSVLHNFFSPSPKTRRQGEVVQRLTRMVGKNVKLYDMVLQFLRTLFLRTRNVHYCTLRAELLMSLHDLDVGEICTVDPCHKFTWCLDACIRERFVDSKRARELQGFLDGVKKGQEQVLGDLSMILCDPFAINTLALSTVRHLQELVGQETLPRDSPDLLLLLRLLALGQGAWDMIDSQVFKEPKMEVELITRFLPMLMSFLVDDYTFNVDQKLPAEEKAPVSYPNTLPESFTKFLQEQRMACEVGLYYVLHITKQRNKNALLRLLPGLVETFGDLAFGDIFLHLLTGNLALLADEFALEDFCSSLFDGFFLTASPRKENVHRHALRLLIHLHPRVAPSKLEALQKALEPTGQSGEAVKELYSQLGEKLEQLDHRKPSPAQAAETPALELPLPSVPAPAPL
# Sequence (Q8IXH7 10-590, chain 3 of 4): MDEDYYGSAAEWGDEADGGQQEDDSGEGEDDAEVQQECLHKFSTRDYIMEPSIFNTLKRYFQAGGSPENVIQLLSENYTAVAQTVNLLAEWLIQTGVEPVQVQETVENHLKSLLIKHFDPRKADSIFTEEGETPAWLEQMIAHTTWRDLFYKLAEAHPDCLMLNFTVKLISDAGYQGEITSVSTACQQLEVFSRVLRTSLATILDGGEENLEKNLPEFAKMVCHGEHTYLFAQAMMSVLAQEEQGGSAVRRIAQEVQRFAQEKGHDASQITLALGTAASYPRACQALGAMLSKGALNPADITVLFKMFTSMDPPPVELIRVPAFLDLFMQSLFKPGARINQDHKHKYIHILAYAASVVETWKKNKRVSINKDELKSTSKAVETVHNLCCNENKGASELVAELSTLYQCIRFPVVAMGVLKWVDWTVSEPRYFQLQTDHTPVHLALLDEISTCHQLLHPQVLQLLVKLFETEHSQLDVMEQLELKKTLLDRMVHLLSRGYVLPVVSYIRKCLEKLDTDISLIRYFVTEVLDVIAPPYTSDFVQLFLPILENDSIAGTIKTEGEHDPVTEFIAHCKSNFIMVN
# Sequence (P18615 1-138, chain 4 of 4): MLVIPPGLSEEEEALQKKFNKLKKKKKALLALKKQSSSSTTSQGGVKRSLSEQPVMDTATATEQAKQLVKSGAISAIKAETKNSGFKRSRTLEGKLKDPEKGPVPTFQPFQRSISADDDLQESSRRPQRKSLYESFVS
# Protocol description: fluorescence anisotropy; yeast tRNA 5 ug/ml; NELF-AC: 30 mM NaCl, 3 mM MgCl2, 10 mM Na-HEPES pH 7.4, 2 mM DTT, 50 ug/ml BSA; other NELF complexes: same with 60 mM NaCl and 5 ug/ml yeast tRNA; 10 nM nucleic acid, incubated at RT, read at 30 C
# Conditions: protein: recombinant;recombinant;recombinant;recombinant; copies: 1;1;1;1; label: 5'-FAM; single strand
// values below are reported Kd
Please give a number only; it is taken to be in nM.

binder="AAGGGGAGCGGGGGAGGAUAAUAGG (ssRNA) [60% GC ssRNA]" result_value=30

We now examine a further binder.
Kd lookup needed for AAGGGGAGCGGGGGAGGATAATAGG (ssDNA) [60% GC ssDNA] , thanks.
30
